Where do these numbers come from? They come from the supplement of paper PMC7125110.

B1: glmS ribozyme (parent)
chain: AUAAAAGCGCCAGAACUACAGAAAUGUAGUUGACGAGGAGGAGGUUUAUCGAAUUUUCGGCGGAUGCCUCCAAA

- Variants of: B1
- assayProcedure: self-cleavage kobs at 2500 uM GlcN6P; higher = faster cleavage; RNA array
- assayConditions: with glucosamine-6-phosphate
This sample holds only a part of the variants without activity.
measuredAttribute: self-cleavage kobs at 2500 uM GlcN6P (s⁻¹)
Answers are plain numbers, in s⁻¹.

For every record below, what is its self-cleavage kobs at 2500 uM GlcN6P?
1. AUAAAAGCGCCAGAACUACAGAAAUGUAGUUGACGAGGAGGAGGUUUAUAGAAUUUUCGGCGGAUGCCUGCAAA
2. AUAAACGCGCCAGAACUACAGAAAUGUAGUUGACGAGGAGGAGGUUUAUGGAAUUUUCGGCGGAUGCCUUCAAA
3. AUAAAAGCGCCAGAACUACAGAAAUGUAGUUGACGAGGAGGAGGUUUAUCGAGUUUUCGGCGGGUGCCUCCAAA

A.
1. 6.7e-05
2. 0.000114
3. 0.0373

For every record below, what is its self-cleavage kobs at 2500 uM GlcN6P?
1. AUAAAAGCGCCAGAACUACAGAAAUGUAGUUGAUGAAGAGGAGGUUUAUAGGAUUUUCGGCGGAUGCCUGCAAA
2. AUAAAUGCGCCAGAACUACAGAAAUGUAGGUGACGAGGAGGAGGUUUAUCGAAUUUUCGGCGGAUGCCUCCAAA
3. AUAAAAGCGCCAGAACUACAGAAAUGUAGUAGACGAGGAGGAGGUUUAUGGAAUUUUCGGCGGAUGCCUCCAAA
4. AUAAAAGCGCCAGAACUACAGAAAUGUAGUUAACGAGGAGGAGGUUUAUCGAAUGUUCGGCGGAUGCCUCCAAA
5. AUAAAAGCGCCAUAACUAAAGAAAUGUAGUUGACGAGGAGGAGGUUUAUCGAAUUUUCGGCGGAUGCCUUCAAA
6. AUAAAAGCGCCAUAACUACAGAAAUGUAGUUGACGAGGGGGAGGUUGAUCGAAUUUUCGGCGGAUGCCUCAAAA
7. AUAAAAGCGCCAGAACUACAGAAAUGUAGUUGACGAGGAGGAGGUUUAUAGACUUUGGGGCGGAUGCCUCCAAA

A.
[0.000268, "4.14e-05", 0.000577, 0.000627, 0.000171, "5.73e-05", "8.01e-05"]

Q. Which self-cleavage kobs at 2500 uM GlcN6P value belongs to `AUAAAAGCGCCAGAAGUACAGAAAUGUAGUUGACGAGGAGGAGGUUUAUCGAAUUUACGGCGGAUGCCUCCAAA` ?
A. 3.99e-05
